Biological target: T1, MPDZ_5, O75970
T1 sequence (O75970 695-796, limits assumed, looked up): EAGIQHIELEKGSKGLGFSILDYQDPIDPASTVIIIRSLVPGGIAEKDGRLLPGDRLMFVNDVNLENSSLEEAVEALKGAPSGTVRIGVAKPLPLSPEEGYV
Assay: holdup assay
Set-up: key: below the threshold = too weak to quantify, mostly under pKd 3.1 to 4
Conditions: plain residues with an end cap or a label only (N-terminal biotin on a linker: ttds)
Assay Readout: pKd

Below are worked cases with known answers.
In [3]: df
Out[3]:
                          binder               result
0  SGSRPSATVV [HPV73-E6, Q82005]                 3.53
1    SSLQSLETSV [ATP2B4, P23634]                 3.58
2  QRQARSETLV [HPV59-E6, Q81964]                 3.81
3   EVVHTPETSV [SLC16A3, O15427]  below the threshold
4    PVRVCEETSL [OTULIN, Q96BN8]  below the threshold
5    VDFPPKESSL [ACVR2A, P27037]  below the threshold

Inquiry: Answer with the recorded pKd of RPLPRKVSQL [DOCK4, Q8N1I0] only.
Reply text: below the threshold

Inquiry: Answer with the recorded pKd of RLPKIKETTV [FRMPD4, Q14CM0] only.
Reply text: below the threshold

Inquiry: Answer with the recorded pKd of RHTTSTETAV [HPV30-E6, P36809] only.
Reply text: below the threshold

Inquiry: Answer with the recorded pKd of KKYVDAETSL [SLC4A7, Q9Y6M7] only.
Reply text: below the threshold

Inquiry: Answer with the recorded pKd of EMDRRPATVV [PLCB4, Q15147] only.
Reply text: 3.66

Inquiry: Answer with the recorded pKd of RLQRRRETQV [HPV18-E6, P06463] only.
Reply text: below the threshold

Inquiry: Answer with the recorded pKd of DKDPHSETAL [TMIGD1, Q6UXZ0] only.
Reply text: below the threshold

Inquiry: Answer with the recorded pKd of SKPTRRETEV [HPV35-E6, P27228] only.
Reply text: below the threshold

Inquiry: Answer with the recorded pKd of PRVKPQRSKV [PPP1R13L, Q8WUF5] only.
Reply text: below the threshold

Inquiry: Answer with the recorded pKd of NDPAWDETNL [ARHGEF7, Q14155;Q14155-1] only.
Reply text: below the threshold

Inquiry: Answer with the recorded pKd of FHPLGADSQV [SLC2A1, P11166] only.
Reply text: below the threshold

Values from paper PMC9482650
